// provenance: patent US20220144956A1

pKd by entry:
ASSAY TARGET: human TGFßRII (antigen of the Octet experiments) (human, UniProt P37173 23-166)
Sequence (P37173 23-166): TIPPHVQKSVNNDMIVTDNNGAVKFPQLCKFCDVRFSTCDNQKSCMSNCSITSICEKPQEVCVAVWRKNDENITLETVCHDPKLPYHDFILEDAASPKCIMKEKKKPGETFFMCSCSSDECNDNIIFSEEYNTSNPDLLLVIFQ
ASSAY EXPLANATION: BLI (Octet)
Formally, pKd is defined as -log10 of the concentration c, with c in mol/L.

Example entries begin here.
BINDER: H1.77 L1 XENP34533 (antibody, V domains shown) VH: QLQVQESGPGLVKPSETLSLTCTVSGGSISNSYFSWGWIRQPPGKGLEWIGSFYYGEKTYYNPSLKSRATISIDTSKSQFSLKLSSVTAVDTAVYYCPRGPTMIRGVIDSWGQGTLVTVSS VL: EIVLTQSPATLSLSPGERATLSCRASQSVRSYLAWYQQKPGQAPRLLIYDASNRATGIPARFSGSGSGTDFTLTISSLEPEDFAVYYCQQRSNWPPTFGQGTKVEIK
QUANTITATIVE RESULT: 9.13
//
BINDER: H1.95 L1 XENP34551 (antibody, V domains shown) VH: QLQVQESGPGLVKPSETLSLTCTVSGGSISNSYFSWGWIRQPPGKGLEWIGSFYYGEKTYYNPSLKSRATISIDTSKSQFSLKLSSVTAADTAVYYCPRGPTMIKGVIDSWGQGTLVTVSS VL: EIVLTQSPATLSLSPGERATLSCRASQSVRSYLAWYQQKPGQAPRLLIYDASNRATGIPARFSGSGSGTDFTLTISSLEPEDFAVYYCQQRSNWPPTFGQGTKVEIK
QUANTITATIVE RESULT: 8.63

Continue with the binder presented below.
Exercise: Recorded pKd of H1 L1.2 XENP34565 (antibody, V domains shown) VH: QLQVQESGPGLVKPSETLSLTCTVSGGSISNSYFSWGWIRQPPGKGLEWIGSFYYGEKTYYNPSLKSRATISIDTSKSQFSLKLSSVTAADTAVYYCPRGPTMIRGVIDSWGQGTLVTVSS VL: EIVLTQSPGTLSLSPGERATLSCRASQSVRSYLAWYQQKPGQAPRLLIYDASNRATGIPARFSGSGSGTDFTLTISSLEPEDFAVYYCQQRSNWPPTFGQGTKVEIK , please.
Solution: 9.44
